target: T1, Cbx7 Q9D chromodomain (tags removed) (human, UniProt O95931 7-66, Q9D)
T1 construct: chromodomain of human Cbx7 (Cbx7-chromo), UniProt O95931; source: E. coli BL21(DE3), purified (Ni-NTA; tags removed with TEV protease)
T1 sequence: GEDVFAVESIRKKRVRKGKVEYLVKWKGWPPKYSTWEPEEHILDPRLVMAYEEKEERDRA
protocol.notes: fluorescence polarisation; 0.5 nM FITC-labelled peptide; chromodomains 200-0.2 µM (wild type) or 50 µM-50 nM (Cbx7.V1 and all Cbx.VDs); 30 min at 25 °C; 25 mM HEPES pH 7.5, 150 mM NaCl, 1 mM DTT, 0.01% TritonX-100; one-site total binding model
assay.setup: both partners purified
measured.parameter: pKd
Answers are plain numbers, as −log10 of the molar value.

KQLATKAARKSAPATGGVK (trimethyl-lysine at K27; fluorescein isothiocyanate (FITC) at the N-terminus) [H3K27me3 peptide, N-terminal FITC]
4.00

**Query** Which pKd is reported for this binder? ARTKQTARKSTGGKAPR (trimethyl-lysine at K9; fluorescein isothiocyanate (FITC) at the N-terminus) [H3K9me3 peptide, N-terminal FITC]
**Result** 5.00
